Provenance of the data: patent US20230233569A1

target: NRAS G12C (Homo sapiens, UniProt P01111+P62937, G12C); assay: Disruption of BRAF RBD interaction with Ras (FRET / MOA assay, with Cyclophilin A); assay type: biochemical; conditions: NRAS G12C; read-out: NRAS G12C FRET data IC50
Sequence (P01111 whole entry G12C, one chain of several): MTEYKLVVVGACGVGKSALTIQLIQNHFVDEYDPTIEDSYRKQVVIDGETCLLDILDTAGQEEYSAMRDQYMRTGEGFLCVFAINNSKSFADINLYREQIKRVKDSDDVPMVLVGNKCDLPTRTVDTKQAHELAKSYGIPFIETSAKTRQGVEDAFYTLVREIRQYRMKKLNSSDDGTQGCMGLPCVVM
pIC50: −log10 of the molar value.
Recorded pIC50 for the following compounds

| COMPOUND | EXPERIMENTAL RESULT |
| --- | --- |
| CCn1c(-c2cccnc2[C@H](C)OC)c2c3cc(ccc31)-c1csc(n1)C[C@H](NC(=O)[C@H](C(C)C)N(C)C(=O)N1CCN(C(=O)CO)CC1)C(=O)N1CCC[C@H](N1)C(=O)OCC(C)(C)C2 (atropisomer, axis not shown) [Example A306] | 7.00 to 8.00 |
| CCn1c(-c2cccnc2[C@H](C)OC)c2c3cc(ccc31)-c1cc(O)cc(c1)C[C@H](NC(=O)[C@H](C1CCCC1)N(C)C(=O)N1CCS(=O)(=NC)CC1)C(=O)N1CCC[C@H](N1)C(=O)OCC(C)(C)C2 [Example A426] | 7.00 to 8.00 |
| CCn1c(-c2cnccc2COC)c2c3cc(ccc31)-c1cc(O)cc(c1)C[C@H](NC(=O)C1CCCC1C(F)F)C(=O)N1CCC[C@H](N1)C(=O)OCC(C)(C)C2 (stereo partly shown) [Example A261] | 5.00 to 6.00 |

Consider the compound CCn1c(-c2cccnc2[C@H](C)OC)c2c3cc(ccc31)-c1csc(n1)C[C@H](NC(=O)[C@H](C(C)C)N(C)C(=O)N1C[C@H]3CN(C)C[C@H]31)C(=O)N1CCC[C@H](N1)C(=O)OCC(C)(C)C2 [Example A497] and give its measured pIC50.
6.00 to 7.00

###

molecular target: KRAS G13D (Homo sapiens, UniProt P01116+P62937, G13D); experiment: Disruption of BRAF RBD interaction with Ras (FRET / MOA assay, with Cyclophilin A); type: biochemical; conditions: KRAS G13D; read-out: KRAS G13D FRET data IC50
Sequence (P01116 1-169 isoform P01116-2 G13D limits assumed): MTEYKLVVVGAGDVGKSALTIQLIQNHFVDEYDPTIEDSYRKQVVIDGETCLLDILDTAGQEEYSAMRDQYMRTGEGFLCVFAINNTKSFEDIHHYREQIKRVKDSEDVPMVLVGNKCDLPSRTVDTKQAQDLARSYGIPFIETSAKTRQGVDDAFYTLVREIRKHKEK
Sequence (P62937 whole entry): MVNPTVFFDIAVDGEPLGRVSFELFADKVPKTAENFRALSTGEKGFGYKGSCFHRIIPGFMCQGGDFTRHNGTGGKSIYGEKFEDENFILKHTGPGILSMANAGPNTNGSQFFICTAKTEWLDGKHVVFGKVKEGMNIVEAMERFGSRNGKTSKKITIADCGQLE
pIC50: −log10 of the molar value.
Recorded pIC50 for the following molecules

| MOLECULE | EXPERIMENTAL RESULT |
| --- | --- |
| CCn1c(-c2cccnc2[C@H](C)OC)c2c3cc(ccc31)-c1csc(n1)C[C@H](NC(=O)[C@H](C(C)C)N(C)C(=O)N1CC3CCN(C)CC31)C(=O)N1CCC[C@H](N1)C(=O)OCC(C)(C)C2 (stereo partly drawn) | 5.00 to 6.00 |
| CCn1c(-c2cccnc2[C@H](C)OC)c2c3cc(ccc31)-c1csc(n1)C[C@H](NC(=O)[C@H](C(C)C)N(C)C(=O)N1CCC[C@H]1CN(C)C)C(=O)N1CCC[C@H](N1)C(=O)OCC(C)(C)C2 | 5.00 to 6.00 |
| C=CC(=O)N(C)C1CCN(C(=O)N(C)[C@H](C(=O)N[C@H]2Cc3nc(cs3)-c3ccc4c(c3)c(c(-c3cccnc3[C@H](C)OC)n4CC)CC(C)(C)COC(=O)[C@@H]3CCCN(N3)C2=O)C(C)C)C1 (stereo partly drawn) | 6.00 to 7.00 |
| CCn1c(-c2cccnc2[C@H](C)OC)c2c3cc(ccc31)-c1cc(O)cc(c1)C[C@H](NC(=O)[C@H](C(C)C)N(C)C(=O)O[C@H]1CCOC1)C(=O)N1CCC[C@H](N1)C(=O)OCC(C)(C)C2 | 6.00 to 7.00 |
| CCn1c(-c2cccnc2[C@H](C)OC)c2c3cc(ccc31)-c1csc(n1)C[C@H](NC(=O)[C@H](C(C)C)N(C)C(=O)N1CCN(C(=O)[C@H]3CCCN3C)CC1)C(=O)N1CCC[C@H](N1)C(=O)OCC(C)(C)C2 (atropisomer, axis not shown) | 6.00 to 7.00 |
| CCn1c(-c2cccnc2[C@H](C)OC)c2c3cc(ccc31)-c1cc(O)cc(c1)C[C@H](NC(=O)[C@@H](NC(C)=O)C(C)(C)OC)C(=O)N1CCC[C@H](N1)C(=O)OCC(C)(C)C2 (racemic) | < 5.00 |
| CCN(C(=O)N(C)[C@H](C(=O)N[C@H]1Cc2nc(cs2)-c2ccc3c(c2)c(c(-c2cccnc2[C@H](C)OC)n3CC)CC(C)(C)COC(=O)[C@@H]2CCCN(N2)C1=O)C(C)C)C1CC1 | 6.00 to 7.00 |
| CCn1c(-c2cc(C3CCN(C)CC3)cnc2[C@H](C)OC)c2c3cc(ccc31)-c1csc(n1)C[C@H](NC(=O)[C@H](C(C)C)N(C)C(=O)N1CC(C3COC3)C1)C(=O)N1CCC[C@H](N1)C(=O)OCC(C)(C)C2 | 6.00 to 7.00 |

Consider the molecule CCn1c(-c2cc(N3CCN(C)CC3)cnc2[C@H](C)OC)c2c3cc(ccc31)-c1cc(O)cc(c1)C[C@H](NC(=O)[C@H](C1CCCC1)N(C)C(=O)[C@H]1OCC[C@H]1c1ccccc1)C(=O)N1CCC[C@H](N1)C(=O)OCC(C)(C)C2 and give its measured pIC50.
6.00 to 7.00

###

Molecular target: KRAS G12C (Homo sapiens, UniProt P01116+P62937, G12C)
Sequence (P01116 1-169 isoform P01116-2 G12C, one chain of several): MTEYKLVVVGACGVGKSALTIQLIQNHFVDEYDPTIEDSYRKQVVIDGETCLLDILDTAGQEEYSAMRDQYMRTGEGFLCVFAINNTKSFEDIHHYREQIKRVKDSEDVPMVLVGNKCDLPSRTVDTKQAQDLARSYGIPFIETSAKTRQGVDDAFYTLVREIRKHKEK
Assay: Disruption of BRAF RBD interaction with Ras (FRET / MOA assay, with Cyclophilin A)
Assay type: biochemical
Conditions: KRAS G12C; read-out: KRAS G12C FRET data IC50
Excerpt: This protocol may also be executed substituting other Ras proteins or nucleotides. The purpose of this biochemical assay was to measure the ability of test compounds to facilitate ternary complex formation between a nucleotide-loaded K-Ras isoform and Cyclophilin A; the resulting ternary complex disrupts binding to a BRAF^RBD construct, inhibiting K-Ras signaling through a RAF effector. Data is reported as IC50 values. […]
pIC50: −log10 of the molar value.
EXPERIMENTAL READOUT: pIC50

| MOLECULE | EXPERIMENTAL RESULT |
| --- | --- |
| C=CC(=O)N1CC[C@H](C(=O)N(C)[C@H](C(=O)N[C@H]2Cc3cc(O)cc(c3)-c3ccc4c(c3)c(c(-c3c(CCOC)cccc3OC)n4CC)CC(C)(C)COC(=O)[C@@H]3CCCN(N3)C2=O)C(C)C)C1 [Example A080] | 6.00 to 7.00 |
| C=CC(=O)N1CCOC2(CCN(C(=O)N(C)[C@H](C(=O)N[C@H]3Cc4nc(n(C)n4)-c4ccc5c(c4)c(c(-c4cccnc4[C@H](C)OC)n5CC(F)(F)F)CC(C)(C)COC(=O)C4CCCN(N4)C3=O)C(C)C)CC2)C1 (stereo partly shown) [Example A606] | 6.00 to 7.00 |

Consider the molecule C=CC(=O)N1CC[C@H](C(=O)N(C)[C@H](C(=O)N[C@H]2Cc3cc(O)cc(c3)-c3ccc4c(c3)c(c(-c3cnccc3COC)n4CC)CC(C)(C)COC(=O)[C@@H]3CCCN(N3)C2=O)C(C)C)C1 [Examples A028] and give its measured pIC50.
7.00 to 8.00

Consider the molecule C=CC(=O)N1CCC(C(=O)N(C)[C@H](C(=O)N[C@H]2Cc3cc(O)cc(c3)-c3ccc4c(c3)c(c(-c3ccccc3CCOC)n4CC)CC(C)(C)COC(=O)[C@@H]3CCCN(N3)C2=O)C(C)C)CC1 [Example A014] and give its measured pIC50.
6.00 to 7.00

###

Recorded IC50 for the following compounds
test system: NCI-H358 (K-Ras G12C); experiment: CellTiter-Glo cell viability assay, 5-day treatment; format: cell-based; conditions: Homo sapiens, NCI-H358, 120 h, 5-day treatment; read-out: H358 Cell Viability assay data (K-Ras G12C, IC50)

Record excerpt, results attached:
| COMPOUND | IC50 |
| --- | --- |
| CCn1c(-c2cnccc2COC)c2c3cc(ccc31)-c1cc(O)cc(c1)C[C@H](NC(=O)[C@H](C(C)C)N1COCC1=O)C(=O)N1CCC[C@H](N1)C(=O)OCC(C)(C)C2 [Example A102] | 1000 to 10000 nM |
| CCn1c(-c2cccnc2[C@H](C)OC)c2c3cc(ccc31)-c1csc(n1)C[C@H](NC(=O)[C@H](C(C)C)N(C)C(=O)N1CCN(C(=O)C3(N(C)C)CC3)CC1)C(=O)N1CCC[C@H](N1)C(=O)OCC(C)(C)C2 (atropisomer, axis not shown) [Example A443] | < 10 nM |
| CCn1c(-c2cnccc2COC)c2c3cc(ccc31)-c1cc(O)cc(c1)C[C@H](NC(=O)[C@H](C(C)C)N(C)C(=O)[C@H]1CCN(C(=O)C(C)C)C1)C(=O)N1CCC[C@H](N1)C(=O)OCC(C)(C)C2 [Example A29] | 100 to 1000 nM |
| CCn1c(-c2cccnc2[C@H](C)OC)c2c3cc(ccc31)-c1csc(n1)C[C@H](NC(=O)[C@H](C(C)C)N(C)C(=O)OC)C(=O)N1CCC[C@H](N1)C(=O)OCC(C)(C)C2 [Example A138] | 10 to 100 nM |
| CCn1c(-c2cccnc2[C@H](C)OC)c2c3cc(ccc31)-c1csc(n1)C[C@H](NC(=O)[C@H](C(C)C)N(C)C(=O)N1[C@H](C)CN(C)C[C@H]1C)C(=O)N1CCC[C@H](N1)C(=O)OCC(C)(C)C2 [Example A610] | 100 to 1000 nM |

Request - read-out IC50 | tested on NCI-H358 (K-Ras G12C) | compound CCn1c(-c2cccnc2[C@H](C)OC)c2c3cc(ccc31)-c1csc(n1)C[C@H](NC(=O)[C@H](C(C)C)N(C)C(=O)N1C[C@H]3OCCN(C)[C@H]3C1)C(=O)N1CCC[C@H](N1)C(=O)OCC(C)(C)C2 (atropisomer, axis not shown) [Example A451]
10 to 100 nM

Request - read-out IC50 | tested on NCI-H358 (K-Ras G12C) | compound CCn1c(-c2cccnc2[C@H](C)OC)c2c3cc(ccc31)-c1csc(n1)C[C@H](NC(=O)[C@H](C(C)C)N(C)C(=O)[C@@H]1C[C@@H]1C)C(=O)N1CCC[C@H](N1)C(=O)OCC(C)(C)C2 [Example A239]
100 to 1000 nM

Request - read-out IC50 | tested on NCI-H358 (K-Ras G12C) | compound CCn1c(-c2cccnc2[C@H](C)OC)c2c3cc(ccc31)-c1cc(O)cc(c1)C[C@H](NC(=O)[C@H](C(C)C)N(C)C(=O)[C@@H]1CCN[C@@H]1c1ccccc1)C(=O)N1CCC[C@H](N1)C(=O)OCC(C)(C)C2 (atropisomer, axis not shown) [Example A605]
10 to 100 nM

Request - read-out IC50 | tested on NCI-H358 (K-Ras G12C) | compound CCn1c(-c2cnccc2COC)c2c3cc(ccc31)-c1cc(O)cc(c1)C[C@H](NC(=O)[C@H](C(C)C)N(C)C(=O)[C@H]1CCN(CCO)C1)C(=O)N1CCC[C@H](N1)C(=O)OCC(C)(C)C2 [Example A23]
1000 to 10000 nM
